B1: library; a variant is named by its letters at N, in order (parent)
chain: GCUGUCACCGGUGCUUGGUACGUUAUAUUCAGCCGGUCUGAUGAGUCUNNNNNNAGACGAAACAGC

Variants of: B1
Assay: normalized RNA/DNA level without ligand (relative to sTRSVctl = 100) (log10 (% of sTRSVctl)); HEK293T overexpressing SLC46A1; higher = less ribozyme self-cleavage, higher mRNA level
Settings: without (6R,S)-folinic acid; ligand present: no
The entries below come with measured normalized RNA/DNA level without ligand (log10) values attached.
When you answer, write just the number.

Reference set, count: 3
mutation_id=AGUCGA observed=1.97
mutation_id=GAAAUC observed=2.04
mutation_id=AUACAC observed=2.01

Which normalized RNA/DNA level without ligand (log10) is listed for `UGCGGG` ?
1.79

Which normalized RNA/DNA level without ligand (log10) is listed for `GCCUGU` ?
2.06

Which normalized RNA/DNA level without ligand (log10) is listed for `UUCAAA` ?
1.97

Which normalized RNA/DNA level without ligand (log10) is listed for `UGGUGU` ?
1.93

Which normalized RNA/DNA level without ligand (log10) is listed for `UCGAAU` ?
1.93

Which normalized RNA/DNA level without ligand (log10) is listed for `UGGACA` ?
1.95

Which normalized RNA/DNA level without ligand (log10) is listed for `UAGUUU` ?
2.01

Which normalized RNA/DNA level without ligand (log10) is listed for `CGUAAA` ?
1.96

Which normalized RNA/DNA level without ligand (log10) is listed for `CUAGGG` ?
1.88

Which normalized RNA/DNA level without ligand (log10) is listed for `UGAGAG` ?
1.69
